# target system: Neurogenic locus notch homolog protein 3 (Homo sapiens)
# assay explanation: NOTCH3 binders on small-molecule microarray, primary screen, biochemical, 635/667 nm fluorescence (AID 1096)
# experimental context: NOTCH3 binding, 635 nm fluorescence, higher = more signal
Categories are defined by ranges of composite z-score, namely c1: < 0.2; c2: ≥ 0.2 and < 0.6; c3: ≥ 0.6

Would you please look over these solved cases?
CO[C@H]1COC(=O)[C@H](C)NC(=O)[C@@H](C)COC(=O)[C@H]2CCCN2C(=O)CC=C[C@H]1C; c2
CCOC(=O)[C@H](Cc1ccccc1)NC(=O)CCC1CC(OC(=O)NCCc2ccc(F)cc2)CC2(CCCC(COC(=O)NCc3ccccc3)O2)O1 (stereo partly drawn); c3
CO[C@@H]1COC(=O)[C@@H]2CCCN2C(=O)[C@@H](C)COC(=O)CC=C[C@H]1C; c3
COC(=O)CC=C[C@@H](C)[C@@H](C=NO[C@@H](C)c1cc(-c2c(C)cc(C)cc2C)no1)NS(=O)(=O)c1ccc(C)cc1; c1
CCOC(=O)[C@H](CC(C)C)NC(=O)CCC1CC(OC(=O)NCc2ccc3c(c2)OCO3)CC2(CCCC(COC(=O)NCc3cccc(C(F)(F)F)c3)O2)O1 (stereo partly drawn); c1

Exercise: read the entry CC(=O)Nc1ccc([C@@H]2N[C@H](C(=O)O)CC[C@H]2C)cc1 and state which class it falls under.
c3

Can you check COC(=O)[C@H](C)NC(=O)CCC1CC(OC(=O)NCc2ccc3c(c2)OCO3)CC2(CCCC(COC(=O)NCc3cccc(C(F)(F)F)c3)O2)O1 (stereo partly drawn) next?
c2

Can you check C=CC1=C[C@H](O)[C@@H]2O[C@@H]2C12OCCCO2 next?
c1

Can you check COc1ccc(O[C@H]2C=C[C@@H](c3ccccc3)O[C@@H]2CON=C(C)CCN2CCc3nc(-c4ccccc4)c(-c4ccccc4)cc3C2)cc1 next?
c1

====

# Test system: XIP peptide (Xip251-270)
# assay explanation: small-molecule binders of XIP peptide, primary screen, biochemical, small-molecule microarray, fluorescence 635/667 nm, 0.5 µg/mL protein (AID 1183)
# experimental context: small-molecule microarray binding, fluorescence 635 nm; higher = more signal
experimental readout: composite z-score
Answers are plain numbers.

Solved cases (6 shown):
CON=Cc1ccc(C(=O)N2[C@H](c3ccc(C)cc3)[C@@H](C)CC[C@H]2C(=O)OC)cc1; 0.488
CO[C@H]1COC(=O)CC=C[C@H](C)[C@@H](OC)COC(=O)[C@@H](C)COC(=O)CC=C[C@@H]1C; -0.396
COc1cccc([C@H]2Oc3ccc(OC)cc3C(=NOC(C)CN3CCCCc4nc(C)c(C)cc43)[C@@H]2O)c1 (stereo partly specified); 0.195
C#CCCCON=C1C[C@@H](O)[C@@H](O)[C@@H]2[C@@H]3C(=O)N(CC)C(=O)[C@@H]3CC[C@@H]12; 0.555
C[C@@H](c1ccccc1)N1C(=O)[C@H]2[C@H]3[C@H](O)[C@H](O)CC(=NOCc4ccccc4)[C@H]3CC[C@H]2C1=O; 0.548
COC(=O)C=CCCc1coc(C=CCNC(=O)OC)n1; 0.868

Quick request: composite z-score for each listed item, please.
1. C[C@@H](ON=C1[C@H]2CCn3c(=O)n(-c4ccccc4)c(=O)n3[C@H]2[C@H](O)[C@@H]2O[C@H]12)c1cn([C@@H]2COC[C@H]2O)nn1
2. CCOC(=O)NN=C1C[C@@H](O)[C@@H](O)[C@@H]2[C@@H]3C(=O)N(Cc4ccccc4)C(=O)[C@@H]3CC[C@H]12
3. COC(=O)[C@@H]1CC[C@H](C)[C@@H](c2ccc(C)cc2)N1C(=O)c1ccc(C=NO[C@@H](C)c2cn([C@H](CO)Cc3ccccc3)nn2)cc1
4. COC(=O)CC=C[C@@H](C)[C@@H](C=NO[C@H](C)c1cn([C@@H]2COC[C@H]2O)nn1)NS(=O)(=O)c1ccc(C)cc1
5. COC(=O)[C@@H]1CC[C@H](C)[C@@H](c2ccc(C)cc2)N1C(=O)c1ccc(C=NOCC[C@@H]2C=C[C@H](OC(C)=O)[C@@H](COC(C)=O)O2)cc1
6. CCN1C(=O)[C@H]2[C@H]3[C@H](O)[C@H](O)CC(=NO[C@@H](C)c4cn([C@H](CO)Cc5ccccc5)nn4)[C@@H]3CC[C@H]2C1=O

1. 0.324
2. 0.0213
3. 0.739
4. 0.486
5. 0.484
6. 0.814

Quick request: composite z-score for each listed item, please.
1. COC(=O)[C@H](C)NC(=O)CCC1CC(OC(=O)NCCc2ccc(F)cc2)CC2(CCCC(COC(=O)NCCC(C)C)O2)O1 (stereo partly specified)
2. COC(=O)[C@@H]1CC[C@H](C)[C@@H](c2ccc(C)cc2)N1C(=O)c1ccc(C=NOC[C@@H](C)[C@H](OCc2ccccc2)C(C)C)cc1
3. CCOC(=O)[C@H](CC(C)C)NC(=O)CCC1CC(OC(=O)NCc2cccc3ccccc23)CC2(CCCC(COC(=O)NCC3CCCCC3)O2)O1 (stereo partly specified)
4. CCO[C@H](c1cc(OC)cc([N+](=O)[O-])c1OC)[C@H](C)C=CCC(=O)OC

1. 0.74
2. 0.489
3. 0.539
4. 0.325

====

# Tested on: PRMT1 (protein arginine N-methyltransferase 1)
# assay explanation: PRMT1 binders on small-molecule microarrays, primary screen, biochemical, small-molecule microarray, 635 nm fluorescence (AID 1088);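 further: binding of Prmt1 protein to compounds spotted on small-molecule microarray slides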
# experimental context: small-molecule microarray binding, higher = more signal
experimental readout: composite z-score

C=CC[C@@H]1C=C[C@H](ON=C2[C@H]3CCn4c(=O)n(-c5ccccc5)c(=O)n4[C@H]3[C@H](O)[C@@H]3O[C@H]23)[C@@H](CO)O1; -0.41
CCN1C(=O)[C@H]2[C@H]3[C@H](O)[C@H](O)CC(=NOC[C@H]4O[C@H](c5ccccc5)C=C[C@@H]4Oc4ccc(OC)cc4)[C@@H]3CC[C@H]2C1=O; 1.28

Which measured composite z-score belongs to COC(=O)CC=C[C@@H](C)[C@H](OCc1cccc(-c2ccccc2)c1)C1CCCCC1 , tested on PRMT1 (protein arginine N-methyltransferase 1)?
-0.526

====

# assay explanation: P. aeruginosa biofilm formation inhibitors, primary screen, PAO1 strain, BacTiter-Glo luminescence, LB-PBS (AID 1144)
# experimental context: 12 h, higher = more signal
experimental readout: z-score
Numbers only.

O=c1n(Cc2cc3c(cc2Cl)OCO3)c(=O)n2n1CC[C@@H]1C(=NOCc3ccccc3)[C@H]3O[C@H]3[C@@H](O)[C@@H]12; 0.692
COc1cc(O)c(C(=O)C=Cc2ccc3c(c2)OCO3)c(OC)c1; 1.1
CO[C@H]1COC(=O)CC=C[C@H](C)[C@@H](OC)COC(=O)[C@H](C)COC(=O)CC=C[C@@H]1C; -0.165

Quick request: z-score for each listed item, please.
1. CCCNC(=O)OC[C@H]1O[C@H](CCON=Cc2ccc(C(=O)N3[C@H](c4ccc(C)cc4)[C@@H](C)CC[C@H]3C(=O)OC)cc2)C=C[C@@H]1Oc1ccc(OC)cc1
2. COC(=O)CC=C[C@@H](C)[C@@H](C=NOCC[C@@H]1C=C[C@H](OC(C)=O)[C@@H](COC(C)=O)O1)NS(=O)(=O)c1ccc(C)cc1
3. COC(=O)[C@@H]1CC[C@H](C)[C@@H](c2ccc(C)cc2)N1C(=O)c1ccc(C=NO[C@@H](C)c2cn([C@H](CO)Cc3ccccc3)nn2)cc1

0.0699
0.493
0.476

====

# assay explanation: small-molecule microarray binders of probe aEGFR, primary screen, biochemical, biotinylated probe, 635/667 nm fluorescence (AID 1097);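 further: probe is a biotinylated anti-EGFR antibody binding compounds printed on slides; score combines fluorescence near 667 nm and signal to noise of each spot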
# experimental context: higher = more signal
experimental readout: composite z-score
One number for each entry.

Quick request: composite z-score for each listed item, please.
1. C=CC1=C[C@H](O)[C@@H]2O[C@@H]2C12OCCCO2
2. CCCCC#C[C@@H]1C=C[C@H](Oc2cc(OC)c(OC)c(OC)c2)[C@@H](COC(=O)OCC)O1
3. CCOC(=O)[C@H](Cc1ccccc1)NC(=O)CCC1CC(OC(=O)NCc2ccc3c(c2)OCO3)CC2(CCCC(COC(=O)NCCc3ccccc3OC)O2)O1 (stereo partly specified)
4. COc1ccc(O[C@H]2C=C[C@@H](c3ccccc3)O[C@@H]2CON=C(C)CCN2CCc3nc(-c4ccccc4)c(-c4ccccc4)cc3C2)cc1
5. CO[C@H]1COC(=O)CC=C[C@@H](C)[C@H](NS(=O)(=O)c2ccc(C)cc2)COC(=O)CCC[C@@H]1C
6. CC(C)(C)N1C(=O)[C@H]2[C@H]3[C@H](O)C=CC(=O)[C@@H]3CC[C@H]2C1=O

[0.009, -0.162, 0.0287, -0.133, -0.067, 0.0469]

Quick request: composite z-score for each listed item, please.
1. Cc1ccc(S(=O)(=O)NC(CCc2ccccc2)CC(=O)C(C)(C)C)cc1 (stereo unspecified)
2. CO[C@H]1COC(=O)[C@@H](Cc2ccccc2)NC(=O)[C@@H](C)COC(=O)CCC[C@@H]1C
3. O=C1[C@H]2[C@H]3[C@H](O)[C@H](O)CC(=NOC[C@@H](O)COCc4ccco4)[C@H]3CC[C@H]2C(=O)N1Cc1ccccc1
4. O=C(C=Cc1ccc2c(c1)OCO2)c1ccc(F)cc1
5. CCN1C(=O)[C@@H]2[C@H]3C(=CC[C@@H]2C1=O)C1(OCCCO1)[C@H]1O[C@H]1[C@H]3O

[0.045, -0.0152, -0.0973, 0.131, 0.0043]

Data provenance: PubChem BioAssay
